Field: log10(IC50). Provide a value for each of the compounds that follow.
- ASSAY TARGET: human PD-L1 (Homo sapiens)
- Construct: purchased Cisbio Bioassays SAS 64PD1PEG
- Sequence (Q9NZQ7 19-238 limits assumed): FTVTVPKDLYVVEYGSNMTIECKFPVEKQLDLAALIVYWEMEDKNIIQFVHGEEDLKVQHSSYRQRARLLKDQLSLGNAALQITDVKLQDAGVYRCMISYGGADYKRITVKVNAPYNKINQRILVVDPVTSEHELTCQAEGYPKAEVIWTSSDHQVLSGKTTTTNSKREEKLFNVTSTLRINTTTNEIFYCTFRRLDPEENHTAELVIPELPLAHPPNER
- EXPERIMENTAL DETAILS: HTRF PD-1/PD-L1 Binding Assay Kit (Cisbio)
- CONDITION SUMMARY: read-out: IC50 (This Work)
Would you kindly interpret these values as log10 of IC50 expressed in µM?

# ENTRY SMILES, log10(IC50)
rows = [
    ("COc1nc(OCc2cccc(-c3ccccc3)c2C)ccc1CN(C)CCNC(C)=O", -0.37),
]

For the 5 compounds below, give their log10(IC50) values.
1. COc1nc(OCc2cccc(-c3ccccc3)c2C)ccc1CN(C)CCN(C)C(C)=O
2. COc1nc(OCc2cccc(-c3ccccc3)c2C)ccc1CN(CCNC(C)=O)C(=O)OCCF
3. COC(=O)[C@@H]1CCCCN1Cc1c(OC)cc(OCc2cccc(-c3ccccc3)c2C)cc1OC
4. COc1cc(OCc2cccc(-c3ccccc3)c2C)cc(OC)c1CN1CCCC[C@H]1C(=O)OCCF
5. COc1nc(OCc2cccc(-c3ccccc3)c2C)ccc1CNCCN(C)C(C)=O

stdout:
0.12
0.99
0.76
0.16
-0.28
